Biological target: PARP7 (Homo sapiens (Human), UniProt Q7Z3E1)
Sequence (Q7Z3E1 whole entry): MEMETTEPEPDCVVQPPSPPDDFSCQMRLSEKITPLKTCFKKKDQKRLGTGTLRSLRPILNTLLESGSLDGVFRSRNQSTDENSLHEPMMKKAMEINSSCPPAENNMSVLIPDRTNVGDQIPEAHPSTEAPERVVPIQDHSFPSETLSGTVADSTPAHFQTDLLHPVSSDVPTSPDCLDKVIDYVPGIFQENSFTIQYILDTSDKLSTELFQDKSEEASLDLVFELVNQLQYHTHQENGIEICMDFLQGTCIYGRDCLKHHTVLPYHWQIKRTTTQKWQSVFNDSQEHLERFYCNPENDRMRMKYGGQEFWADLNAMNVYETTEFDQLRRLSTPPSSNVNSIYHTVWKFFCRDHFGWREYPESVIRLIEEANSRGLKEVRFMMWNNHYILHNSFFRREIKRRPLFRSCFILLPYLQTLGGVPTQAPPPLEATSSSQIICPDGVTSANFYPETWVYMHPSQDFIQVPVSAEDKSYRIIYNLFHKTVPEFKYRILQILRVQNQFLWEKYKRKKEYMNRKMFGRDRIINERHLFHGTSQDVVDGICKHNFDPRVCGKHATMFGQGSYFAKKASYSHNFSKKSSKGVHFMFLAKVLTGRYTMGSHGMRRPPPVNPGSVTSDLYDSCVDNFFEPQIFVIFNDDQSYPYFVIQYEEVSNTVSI
Assay: Enzymatic assay for inhibition of PARP7: TR-FRET displacement of biotinylated Probe A from the TIPARP active site
Details: Table A-1
pIC50: −log10 of the molar value.
For each of the molecules below, state its pIC50.

Req: Form field: reported pIC50 of O=C(CCNC[C@@H]1c2ccccc2CN1c1cn[nH]c(=O)c1C(F)(F)F)N1CCN(c2ncc(Cl)cn2)CC1
Resp: > 7.00

Req: O=C(CCOCCOc1cn[nH]c(=O)c1C(F)(F)F)N1CCN(c2ccc(Cl)cn2)CC1 ?
Resp: > 7.00

Req: N#Cc1ccc(N2CCN(C(=O)C[C@@H](N)COC[C@@H]3CCCN3c3cn[nH]c(=O)c3C(F)(F)F)CC2)nc1 [Example 145A, formic acid] ?
Resp: > 7.00

Req: N#Cc1cnc(N2CCN(C(=O)c3cncc(OC[C@@H]4CCCN4c4cn[nH]c(=O)c4C(F)(F)F)c3)CC2)nc1 ?
Resp: > 7.00

Req: O=c1[nH]ncc(N2Cc3cccc(Oc4ccncc4)c3C2)c1C(F)(F)F ?
Resp: > 7.00

Req: O=c1[nH]ncc(N2Cc3cccc(OCc4cccnc4)c3C2)c1C(F)(F)F ?
Resp: > 7.00

Req: N#Cc1ccc(N2CCN(C(=O)c3ccnc(OC[C@@H]4c5ccccc5CN4c4cn[nH]c(=O)c4C(F)(F)F)c3)CC2)nc1 (single isomer, unassigned) [Example 36 Isomer B] ?
Resp: > 7.00

* * *

Target: PARP7 (Homo sapiens (Human), UniProt Q7Z3E1)
Experiment: Enzymatic assay for inhibition of PARP7: TR-FRET displacement of biotinylated Probe A from the TIPARP active site
Conditions: Table A-1
pIC50: −log10 of the molar value.
experimental readout: pIC50

Req: Form field: reported pIC50 of [2H]C1([2H])N(C(=O)CCOC[C@H](C)Oc2cn[nH]c(=O)c2C(F)(F)F)C([2H])([2H])C([2H])([2H])N(c2ncc(Cl)cn2)C1([2H])[2H] [Example 715]
Resp: > 7.00

Req: COC[C@H](COCCC(=O)N1CCN(c2ncc(Cl)cn2)CC1)Oc1cn[nH]c(=O)c1C(F)(F)F (single isomer, unassigned) ?
Resp: 6.00 to 7.00

Req: O=C(CCOC[C@@H]1CCCN1c1cn[nH]c(=O)c1C(F)(F)F)N1CCN(c2ccccn2)CC1 [Example 454] ?
Resp: > 7.00

Req: CC(=O)N1CCC(Oc2cccc3c2CN(c2cn[nH]c(=O)c2Cl)C3)CC1 [Example 258] ?
Resp: ≤ 6.00

Req: N#Cc1cnc(N2CCN(C(=O)c3cc(OCC4c5ccccc5CN4c4cn[nH]c(=O)c4C(F)(F)F)ccn3)CC2)nc1 (stereo not shown) [Example 380] ?
Resp: > 7.00

Req: C[C@@H](COCCC(=O)N1CC=C(c2ccc(C#N)cn2)CC1)Oc1cn[nH]c(=O)c1C(F)(F)F [Example 646] ?
Resp: > 7.00

Req: N#Cc1ccc(N2CCN(C(=O)CCCOC[C@H]3c4ccccc4CN3c3cn[nH]c(=O)c3C(F)(F)F)CC2)nc1 [Example 409] ?
Resp: 6.00 to 7.00

Req: O=c1[nH]ncc(N2Cc3ccc(F)cc3C2)c1Cl [Example 59] ?
Resp: > 7.00

Req: O=C(C[C@@H]1CC[C@H](COc2cn[nH]c(=O)c2Cl)O1)N1CCN(c2ncc(Cl)cn2)CC1 (single isomer, unassigned) [Example 566 Isomer D] ?
Resp: ≤ 6.00

Req: CCC1c2ccccc2CN1c1cn[nH]c(=O)c1C(F)(F)F (stereo not shown) [Example 310] ?
Resp: ≤ 6.00

Req: C[C@H](OCCC(=O)N1CCN(c2ccc(C#N)cn2)CC1)[C@@H]1CCCN1c1cn[nH]c(=O)c1C(F)(F)F [Example 140B] ?
Resp: 6.00 to 7.00

Req: O=C(CCOCCOc1cn[nH]c(=O)c1Br)N1CCN(c2ncc(C(F)(F)F)cn2)CC1 [Example 548] ?
Resp: > 7.00

Req: C[C@H](CC(=O)N1CCN(c2ccc(C#N)cn2)CC1)OC[C@@H]1CCCN1c1cn[nH]c(=O)c1C(F)(F)F [Example 123A] ?
Resp: > 7.00

Req: N#Cc1ccc(N2CCN(C(=O)CCOCCOc3cn[nH]c(=O)c3Cl)CC2)nc1 [Example 521] ?
Resp: > 7.00

Req: N#Cc1ccc(N2CCN(C(=O)CCO[C@H]3C[C@@H](CN)N(c4cn[nH]c(=O)c4C(F)(F)F)C3)CC2)nc1 [Example 487] ?
Resp: 6.00 to 7.00

Req: COCCOc1ccc2c(c1)CN(c1cn[nH]c(=O)c1C(F)(F)F)C2 [Example 229] ?
Resp: > 7.00

Req: N#Cc1ccc(N2CCN(C(=O)C[C@@H]3CC[C@@H]([C@@H]4CCCN4c4cn[nH]c(=O)c4C(F)(F)F)O3)CC2)nc1 [Example 141A] ?
Resp: > 7.00

Req: O=C(C[C@H]1CC[C@H](COc2cn[nH]c(=O)c2Cl)O1)N1CCN(c2ncc(Cl)cn2)CC1 (single isomer, unassigned) [Example 566 Isomer B] ?
Resp: ≤ 6.00

Req: O=C(CCOCCOc1cn[nH]c(=O)c1Cl)N1CCN(c2ncc(Cl)cn2)CC1 [Example 522] ?
Resp: > 7.00

Req: N#Cc1ccc(N2CCN(C(=O)N3CC[C@H](OC[C@@H]4CCCN4c4cn[nH]c(=O)c4C(F)(F)F)C3)CC2)nc1 [Example 129B] ?
Resp: > 7.00

Req: O=c1[nH]ncc(N2Cc3cc(F)c(OC4CCNCC4)cc3C2)c1C(F)(F)F [Example 279] ?
Resp: > 7.00

Req: O=C(c1cccc(OCC2c3ccccc3CN2c2cn[nH]c(=O)c2C(F)(F)F)c1)N1CCn2c(nnc2C(F)(F)F)C1 (stereo not shown) [Example 367] ?
Resp: > 7.00

Req: CC(=O)N1CCC[C@@H]2CN(c3cn[nH]c(=O)c3C(F)(F)F)C[C@@H]21 [Example 142] ?
Resp: ≤ 6.00

Req: O=C(CCOC[C@@H](CCO)Oc1cn[nH]c(=O)c1C(F)(F)F)N1CCN(c2ncc(Cl)cn2)CC1 [Example 704] ?
Resp: > 7.00

Req: O=C(C[C@@H]1CC[C@H](CNc2cn[nH]c(=O)c2C(F)(F)F)O1)N1CCN(c2ccc(C(F)(F)F)cn2)CC1 (single isomer, unassigned) [Example 546 Isomer D] ?
Resp: > 7.00

Req: N#Cc1ccc(N2CCN(C(=O)N3CC(OC[C@@H]4CCCN4c4cn[nH]c(=O)c4C(F)(F)F)C3)CC2)nc1 [Example 125] ?
Resp: > 7.00

Req: NC(=O)c1cccc2c1CN(c1cn[nH]c(=O)c1C(F)(F)F)C2 [Example 269] ?
Resp: > 7.00

Req: N#Cc1ccc(N2CCN(C(=O)CNCC[C@@H]3c4ccccc4CN3c3cn[nH]c(=O)c3C(F)(F)F)CC2)nc1 [Example 144A] ?
Resp: > 7.00

* * *

For each of the molecules below, state its IC50.
Molecular target: PARP7 (Homo sapiens (Human), UniProt Q7Z3E1)
Assay: Enzymatic assay for inhibition of PARP7: TR-FRET displacement of biotinylated Probe A from the TIPARP active site
Details: Table A-1

Req: Form field: reported IC50 of N#Cc1ccc(N2CCN(C(=O)CCOC[C@@H]3CCCN3c3cn[nH]c(=O)c3C(F)(F)F)CC2)cc1
Resp: < 100 nM

Req: C[C@@H](COCCC(=O)N1CCN(c2ncc(Cl)s2)CC1)Oc1cn[nH]c(=O)c1C(F)(F)F ?
Resp: < 100 nM

Req: N#Cc1ccc(N2CCN(C(=O)CCO[C@@H]3Cc4ccccc4[C@H]3Nc3cn[nH]c(=O)c3C(F)(F)F)CC2)nc1 (single isomer, unassigned) [Example 537 Isomer B] ?
Resp: < 100 nM

Req: C[C@@H](COCCC(=O)N1CCN(c2ncc(C(C)(C)C)cn2)CC1)Nc1cn[nH]c(=O)c1C(F)(F)F ?
Resp: < 100 nM

Req: O=C(CCOC[C@@H](Nc1cn[nH]c(=O)c1C(F)(F)F)C1CC1)N1CCN(c2ncc(C(F)(F)F)cn2)CC1 ?
Resp: < 100 nM

Req: CN(C)CCOc1cc(F)c2c(c1)CN(c1cn[nH]c(=O)c1C(F)(F)F)C2 ?
Resp: < 100 nM

Req: N#Cc1ccc(OC2CCC(NC(=O)CCOC[C@@H]3CCCN3c3cn[nH]c(=O)c3C(F)(F)F)CC2)nc1 (stereo partly drawn) ?
Resp: 100 to 1000 nM

Req: C[C@@H](COCC(O)CN1CCN(c2ncc(C(F)(F)F)cn2)CC1)Nc1cn[nH]c(=O)c1C(F)(F)F (stereo partly drawn) ?
Resp: < 100 nM

Req: N#Cc1ccc(N2CCN(C(=O)c3cccc(OCCOC[C@@H]4CCN(c5cn[nH]c(=O)c5C(F)(F)F)C4)c3)CC2)nc1 ?
Resp: < 100 nM

Req: CO[C@@H](C)[C@@H](COCCC(=O)N1CCN(c2ncc(C(F)(F)F)cn2)CC1)Nc1cn[nH]c(=O)c1C(F)(F)F ?
Resp: < 100 nM

Req: O=c1[nH]ncc(N2Cc3ccc(OC4CCCNC4)cc3C2)c1C(F)(F)F (stereo not drawn) ?
Resp: 100 to 1000 nM

Req: O=C(C[C@@H]1CC[C@@H]([C@@H]2CCCN2c2cn[nH]c(=O)c2C(F)(F)F)O1)N1CCN(c2ccc(Cl)cn2)CC1 [Example 148A] ?
Resp: < 100 nM

Req: O=C(CCOC[C@H]1c2ccccc2CN1c1cn[nH]c(=O)c1Cl)N1CCN(c2ncc(C(F)(F)F)cn2)CC1 ?
Resp: 100 to 1000 nM

Req: N#Cc1ccc(N2CCN(C(=O)CCCCCNc3cn[nH]c(=O)c3C(F)(F)F)CC2)nc1 ?
Resp: < 100 nM

Req: O=C(C[C@H]1CC[C@H]([C@@H]2CCCN2c2cn[nH]c(=O)c2C(F)(F)F)O1)N1CCN(c2ccc(Cl)cn2)CC1 [Example 148C] ?
Resp: < 100 nM

Req: C[C@@H](CNCCC(=O)N1CCN(c2ncc(C(F)(F)F)cn2)CC1)Oc1cn[nH]c(=O)c1C(F)(F)F ?
Resp: 100 to 1000 nM

Req: CN1CCC(NCc2cc3c(cc2F)CN(c2cn[nH]c(=O)c2C(F)(F)F)C3)CC1 ?
Resp: < 100 nM

Req: CN(CC1CCCO1)c1cccc2c1CN(c1cn[nH]c(=O)c1C(F)(F)F)C2 (stereo not drawn) ?
Resp: < 100 nM

Req: C[C@@H](COCCC(=O)N1CCN(c2ncc(C(F)(F)F)cn2)CC1)Oc1cn[nH]c(=O)c1C(F)(F)F (single isomer, unassigned) [Example 544 Isomer A] ?
Resp: < 100 nM

Req: N#Cc1ccc(N2CCN(C(=O)c3ccnc(OC[C@@H]4CCCN4c4cn[nH]c(=O)c4C(F)(F)F)n3)CC2)nc1 ?
Resp: < 100 nM

Req: C[C@@H]1C[C@@H](COc2cccc(C(=O)N3CCN(c4ccc(C#N)cn4)CC3)c2)N(c2cn[nH]c(=O)c2C(F)(F)F)C1 ?
Resp: < 100 nM

Req: N#Cc1ccc(N2CCN(C(=O)c3cc(OC[C@H]4c5ccccc5CN4c4cn[nH]c(=O)c4C(F)(F)F)ccn3)CC2)nc1 ?
Resp: 100 to 1000 nM

Req: CC[C@@H](COCCC(=O)N1CCN(c2ccc(C(F)(F)F)cn2)CC1)Nc1cn[nH]c(=O)c1C(F)(F)F ?
Resp: < 100 nM

Req: [2H]C1([2H])N(C(=O)CCOC[C@H](C)Oc2cn[nH]c(=O)c2C(F)(F)F)C([2H])([2H])C([2H])([2H])N(c2ccc(C#N)cn2)C1([2H])[2H] ?
Resp: < 100 nM

Req: CN(CCOc1cccc(C(=O)N2CCN(c3ccc(C#N)cn3)CC2)c1)c1cn[nH]c(=O)c1C(F)(F)F ?
Resp: < 100 nM

Req: O=c1[nH]ncc(N2Cc3ccc(O)cc3C2)c1C(F)(F)F ?
Resp: < 100 nM

Req: N#Cc1ccc(N2CCN(C(=O)c3cccc(OCCOc4cccc5c4CN(c4cn[nH]c(=O)c4C(F)(F)F)C5)c3)CC2)nc1 ?
Resp: < 100 nM
